Reported binding score is given for each of the following binders.
TARGET: T1, human insulin (human, UniProt P01308 25-54; P01308 90-110, limits assumed)
T1 construct: Off-target protein in the development risk (polyreactivity) ELISA
T1 sequence (P01308 25-54 limits assumed, chain 1 of 2): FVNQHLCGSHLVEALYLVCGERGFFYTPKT
T1 sequence (P01308 90-110 limits assumed, chain 2 of 2): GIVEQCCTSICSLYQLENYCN
TEST DESCRIPTION: development risk ELISA on insulin

[
  {
    "BINDER": "15G11-DI7 IgG1 (antibody, V domains shown, Human IgG1 format, human Ckappa; also called 15G11-D17) VH: QVQLVESGGGLVKPGGSLRLSCAASGFTFSDYSMSWIRQAPGKGLEWVSTISDSGTYTYYPDSVKGRFTISRDNAKNSLYLQMNSLRAEDTAVYYCAREWGDYDGFDFWGQGTLVTVSS VL: DIQMTQSPSSLSASVGDRVTITCRASQEISSYLSWYQQKPGKAPKLLIYAASSLDTGVPSRFSGSGSGTDFTLTISSLQPEDFATYYCLQYDSSPYTFGGGTKVEIK",
    "READOUT KIND": "binding score",
    "OBSERVED MEASUREMENT": "< 10"
  }
]

Please turn your attention to the following entry.
Lookup: Read the entry 15G11-DI1 IgG1 (antibody, V domains shown, Human IgG1 format, human Ckappa) VH: QVQLVESGGGLVKPGGSLRLSCAASGFTFSDYGMSWVRQAPGKGLEWVSTISDSGSYTYYPDSVKGRFTISRDNAKNSLYLQMNSLRAEDTAVYYCARELGDYDGFDYWGQGTLVTVSS VL: DIQMTQSPSSLSASVGDRVTITCRASQEISSYLSWYQQKPGKAPKLLIYAASSLDTGVPSRFSGSGSGTDFTLTISSLQPEDFATYYCLQYDSTPYTFGGGTKVEIK and write its reported binding score.
Found: < 10
